Tested on: HOS (human osteogenic sarcoma)
procedure summary: Calcein AM cytotoxicity assay, HOS
Format: cell-based
study conditions: read-out: Cytotoxic activity IC50 (μM) HOS
reported metric: IC50
Quick note: number first, unit second.

molecule="NC1CCCCC1Nc1nc(NCc2cc(Cl)ccc2O)c2ncn(Cc3ccccc3)c2n1 (stereo not drawn)" reported_result="10.2 µM"

Go through the list and state IC50 for each entry.
1. CCC(CO)Nc1nc(NCc2cc(O)cc(O)c2)c2ncn(C(C)C)c2n1 (stereo not drawn)
2. NC1CCCCC1Nc1nc(NCc2cc(F)ccc2O)c2ncn(Cc3ccccc3)c2n1 (stereo not drawn)
3. CCn1cnc2c(NCc3cc(Cl)ccc3O)nc(NC3CCCCC3N)nc21 (stereo not drawn)
4. CCC(CC)n1cnc2c(NCc3cc(F)ccc3O)nc(NC3CCCCC3N)nc21 (stereo not drawn)

["3.7 µM", "9.3 µM", "41 µM", "4.3 µM"]

// lookup IC50 for CCC(CC)n1cnc2c(NCc3cc(Cl)ccc3O)nc(NC3CCCCC3N)nc21 (stereo not drawn)
6.8 µM

###

Would you mind telling me the reported IC50 of each entry?
target: CDK9/cyclin T (Homo sapiens)
Construct: made in house; host or cells: Sf9 insect cells, baculovirus co-infection
procedure summary: CDK9/cyclin T kinase inhibition assay
Assay type: biochemical
study conditions: kinase inhibitory activity, 15 μM ATP, (YSPTSPS)3 peptide substrate
One number for each entry, in µM.

Go through the list and state IC50 for each entry.
1. CCC(CO)Nc1nc(NCc2cc(OC)ccc2O)c2ncn(C(CC)CC)c2n1 (centres unmarked)
2. Cn1cnc2c(NCc3cc(Cl)ccc3O)nc(NC3CCCCC3N)nc21 (centres unmarked)

1. 0.07
2. 0.18

###

Would you mind telling me the reported IC50 of each entry?
target: CDK9/cyclin T (Homo sapiens, UniProt P50750)
Construct: made in house; host or cells: Sf9 insect cells, baculovirus co-infection
Sequence (P50750 whole entry, species assumed): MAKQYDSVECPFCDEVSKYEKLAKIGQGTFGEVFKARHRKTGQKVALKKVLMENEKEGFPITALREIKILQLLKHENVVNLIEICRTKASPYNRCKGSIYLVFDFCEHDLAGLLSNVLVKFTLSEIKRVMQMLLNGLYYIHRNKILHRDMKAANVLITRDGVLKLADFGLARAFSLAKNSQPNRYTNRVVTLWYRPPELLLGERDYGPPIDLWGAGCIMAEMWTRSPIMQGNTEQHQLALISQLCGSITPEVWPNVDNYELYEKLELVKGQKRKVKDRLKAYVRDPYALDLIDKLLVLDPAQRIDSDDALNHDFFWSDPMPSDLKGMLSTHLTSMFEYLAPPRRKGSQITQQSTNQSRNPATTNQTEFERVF
Sequence (O60563 whole entry partner, species assumed): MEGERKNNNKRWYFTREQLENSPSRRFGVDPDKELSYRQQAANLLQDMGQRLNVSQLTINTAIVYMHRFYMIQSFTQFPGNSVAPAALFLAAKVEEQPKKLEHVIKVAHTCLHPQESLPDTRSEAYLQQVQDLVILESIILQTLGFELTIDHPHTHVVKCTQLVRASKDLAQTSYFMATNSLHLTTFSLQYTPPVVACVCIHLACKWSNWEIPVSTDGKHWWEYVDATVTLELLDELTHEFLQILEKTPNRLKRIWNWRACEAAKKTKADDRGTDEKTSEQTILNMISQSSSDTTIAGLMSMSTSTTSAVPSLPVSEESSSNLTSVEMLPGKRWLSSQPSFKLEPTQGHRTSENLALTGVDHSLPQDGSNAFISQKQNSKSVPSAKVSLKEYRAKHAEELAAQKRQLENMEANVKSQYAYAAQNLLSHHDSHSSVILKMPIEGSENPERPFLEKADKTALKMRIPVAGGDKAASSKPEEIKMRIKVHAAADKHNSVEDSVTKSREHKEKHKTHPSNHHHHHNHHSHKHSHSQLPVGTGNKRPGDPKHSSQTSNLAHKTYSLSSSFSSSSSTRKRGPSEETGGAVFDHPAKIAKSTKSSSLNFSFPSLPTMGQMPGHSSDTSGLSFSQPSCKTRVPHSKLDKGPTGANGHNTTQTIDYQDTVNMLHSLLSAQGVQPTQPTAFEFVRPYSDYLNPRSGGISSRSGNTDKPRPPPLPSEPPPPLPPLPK
procedure summary: CDK9/cyclin T kinase inhibition assay
Type: biochemical
study conditions: kinase inhibitory activity, 15 μM ATP, (YSPTSPS)3 peptide substrate
Answers are plain numbers, in µM.

compound="Cn1cnc2c(NCc3cc(F)ccc3O)nc(NC3CCC(N)CC3)nc21 (stereo not drawn) [Compound 8]" reported_result=0.12
compound="CCC(CO)Nc1nc(NCc2cc(Cl)ccc2O)c2ncn(CC)c2n1 (stereo not drawn) [Compound 50]" reported_result=0.12

Go through the list and state IC50 for each entry.
1. CC(C)n1cnc2c(NCc3cc(Cl)ccc3O)nc(NCC(C)(C)O)nc21 [Compound 81]
2. COc1cccc(CNc2nc(NC3CCC(O)CC3)nc3c2ncn3C(C)C)c1O (stereo not drawn) [Compound 136]
3. CC(C)C(CO)Nc1nc(NCc2cc(Cl)ccc2O)c2ncn(C)c2n1 (stereo not drawn) [Compound 4]
4. CCC(CO)Nc1nc(NCc2cc(F)ccc2O)c2ncn(C(CC)CC)c2n1 (stereo not drawn) [compound 228]
5. CC(C)n1cnc2c(NCc3cc(Cl)ccc3O)nc(NC3CCCCC3N)nc21 (stereo not drawn) [Compound 76]

1. 0.02
2. 0.03
3. 0.08
4. 0.04
5. 0.03

Go through the list and state IC50 for each entry.
1. COc1cccc(CNc2nc(NC3CCC(N)CC3)nc3c2ncn3C)c1O (stereo not drawn) [Compound 32]
2. CCC(CO)Nc1nc(NCc2ccc(O)cc2O)c2ncn(C(C)C)c2n1 (stereo not drawn) [Compound 119]

1. 0.18
2. 0.05

###

target: CDK9/cyclin T (Homo sapiens)
Construct: made in house; host or cells: Sf9 insect cells, baculovirus co-infection
procedure summary: CDK9/cyclin T kinase inhibition assay
Assay type: biochemical
study conditions: kinase inhibitory activity, 15 μM ATP, (YSPTSPS)3 peptide substrate
Would you mind telling me the reported IC50 of each entry?
Numbers only, in µM.

Previously resolved entries follow.
compound="CCC(CO)Nc1nc(NCc2cc(F)ccc2O)c2ncn(C(C)C)c2n1 (centres unmarked) [Compound 89]" target="CDK9/cyclin T (Homo sapiens)" reported_metric=IC50 unit_tag=µM reported_result=0.02
compound="CC(C)n1cnc2c(NCc3cc(O)ccc3O)nc(NC3CCCCC3N)nc21 (centres unmarked) [Compound 121]" target="CDK9/cyclin T (Homo sapiens)" reported_metric=IC50 unit_tag=µM reported_result=0.07
compound="CCC(CC)n1cnc2c(NCc3cc(Cl)ccc3O)nc(NC3CCCCC3N)nc21 (centres unmarked) [compound 223]" target="CDK9/cyclin T (Homo sapiens)" reported_metric=IC50 unit_tag=µM reported_result=0.05
compound="CC(C)n1cnc2c(NCc3cc(Cl)ccc3O)nc(NC(C)C(C)(C)O)nc21 (centres unmarked) [Compound 82]" target="CDK9/cyclin T (Homo sapiens)" reported_metric=IC50 unit_tag=µM reported_result=0.01

In the following, a different compound is considered.
// lookup IC50 for Cn1cnc2c(NCc3cc(Cl)ccc3O)nc(NC3CCC(N)CC3)nc21 (centres unmarked) [Compound 2]
0.15

###

System: β-adrenergic receptors
procedure summary: Modulation of the activity of β-adrenergic receptors (isoproterenol-induced cAMP synthesis in C6 glioma)
Format: cell-based
study conditions: rat C6 glioma, cAMP synthesis induced by 5 μM (−) isoproterenol, 30 min, simultaneous addition
reported metric: EFFECT (modulation of the activity of β-adrenergic receptors)

Previously resolved entries follow.
molecule="COc1cccc(CNc2nc(NC3CCCCC3N)nc3c2ncn3C(C)C)c1O (stereo not shown) [Compound 125]" reported_result=inhibition
molecule="CC[C@H](CO)Nc1nc(NCc2ccccc2)c2ncn(C(C)C)c2n1 [ROSC, roscovitine, reference compound]" reported_result=inactive
molecule="COc1cccc(CNc2nc(NC3CCC(N)CC3)nc3c2ncn3C(C)C)c1O (mixture of isomers) [Compound 126]" reported_result=inhibition
molecule="Cn1cnc2c(NCc3ccccc3)nc(NCCO)nc21 [OC]" reported_result=inactive

Go through the list and state EFFECT (modulation of the activity of β-adrenergic receptors) for each entry.
1. Cc1cccc(CNc2nc(NC3CCCCC3N)nc3c2ncn3C(C)C)c1O (stereo not shown) [Compound 105]
2. Cc1ccc(O)c(CNc2nc(NC3CCC(N)CC3)nc3c2ncn3C(C)C)c1 (stereo not shown) [Compound 106]
3. CC(C)n1cnc2c(NCc3cc(F)ccc3O)nc(NC3CCCCC3N)nc21 (stereo not shown) [Compound 86]

1: inhibition; 2: inhibition; 3: inhibition

###

target: CDK2/cyclin E (Homo sapiens, UniProt P24941)
Construct: made in house; host or cells: Sf9 insect cells, baculovirus co-infection
procedure summary: CDK2/cyclin E kinase inhibition assay
Type: biochemical
study conditions: kinase inhibitory activity, 15 μM ATP, histone substrate
Would you mind telling me the reported IC50 of each entry?
Give bare numbers, in µM.

compound="CCC(CO)Nc1nc(NCc2cccc(OC)c2O)c2ncn(C)c2n1 (centres unmarked) [Compound 34]" unit_tag=µM reported_result=0.27
compound="CC(C)C(CO)Nc1nc(NCc2cc(Cl)ccc2O)c2ncn(C(C)C)c2n1 (centres unmarked) [Compound 80]" unit_tag=µM reported_result=0.06
compound="COc1cccc(CNc2nc(NC3CCCCC3N)nc3c2ncn3C(C)C)c1O (centres unmarked) [Compound 125]" unit_tag=µM reported_result=0.02
compound="CCC(CO)Nc1nc(NCc2cc(OC)ccc2O)c2ncn(C(CC)CC)c2n1 (centres unmarked) [compound 240]" unit_tag=µM reported_result=0.1

Quick check: IC50 on CDK2/cyclin E (Homo sapiens, UniProt P24941), item Cn1cnc2c(NCc3cc(F)ccc3O)nc(NC3CCC(N)CC3)nc21 (centres unmarked) [Compound 8] ?
0.25

###

target: CDK9/cyclin T (Homo sapiens, UniProt P50750)
Construct: made in house; host or cells: Sf9 insect cells, baculovirus co-infection
procedure summary: CDK9/cyclin T kinase inhibition assay
Assay type: biochemical
study conditions: kinase inhibitory activity, 15 μM ATP, (YSPTSPS)3 peptide substrate
Would you mind telling me the reported IC50 of each entry?
One number for each entry, in µM.

compound="CCC(CC)n1cnc2c(NCc3cccc(OC)c3O)nc(NC3CCCCC3N)nc21 (centres unmarked)" reported_result=0.04

Go through the list and state IC50 for each entry.
1. CC(C)C(CO)Nc1nc(NCc2cc(Cl)ccc2O)c2ncn(C(C)C)c2n1 (centres unmarked)
2. CCC(CO)Nc1nc(NCc2cccc(C)c2O)c2ncn(C(C)C)c2n1 (centres unmarked)
3. CCC(CO)Nc1nc(NCc2cccc(OC)c2O)c2ncn(C(C)C)c2n1 (racemic)
4. CCC(CO)Nc1nc(NCc2cc(Cl)ccc2O)c2ncn(C)c2n1 (centres unmarked)

1. 0.05
2. 0.04
3. 0.04
4. 0.12

###

Would you mind telling me the reported log10 IC50 of each entry?
target: CDK9/cyclin T (Homo sapiens)
Construct: made in house; host or cells: Sf9 insect cells, baculovirus co-infection
procedure summary: CDK9/cyclin T kinase inhibition assay
Assay type: biochemical
study conditions: kinase inhibitory activity, 15 μM ATP, (YSPTSPS)3 peptide substrate
Hello, just confirming the data are log10 of IC50 with units of µM.

Previously resolved entries follow.
compound="CCC(CO)Nc1nc(NCc2cccc(OC)c2O)c2ncn(C)c2n1 (centres unmarked)" target="CDK9/cyclin T (Homo sapiens)" reported_result=-0.80
compound="COc1cccc(CNc2nc(NCC(C)O)nc3c2ncn3C(C)C)c1O (centres unmarked)" target="CDK9/cyclin T (Homo sapiens)" reported_result=-1.22
compound="CCC(CO)Nc1nc(NCc2cccc(O)c2O)c2ncn(C(C)C)c2n1 (centres unmarked)" target="CDK9/cyclin T (Homo sapiens)" reported_result=-1.40

Go through the list and state log10 IC50 for each entry.
1. CCn1cnc2c(NCc3cc(Cl)ccc3O)nc(NC3CCC(N)CC3)nc21 (centres unmarked)
2. CCn1cnc2c(NCc3cccc(OC)c3O)nc(NC3CCC(N)CC3)nc21 (centres unmarked)
3. CCC(CO)Nc1nc(NCc2cc(F)ccc2O)c2ncn(C)c2n1 (centres unmarked)
4. CC(C)n1cnc2c(NCc3cc(Cl)ccc3O)nc(NCCC(C)(C)O)nc21
5. CCC(CO)Nc1nc(NCc2cc(Cl)ccc2O)c2ncn(C(C)C)c2n1 (centres unmarked)
6. CCC(CO)Nc1nc(NCc2ccc(OC)cc2O)c2ncn(C(C)C)c2n1 (centres unmarked)
7. CCn1cnc2c(NCc3cc(C)ccc3O)nc(NC3CCCCC3N)nc21 (centres unmarked)

1: -1.05; 2: -1.15; 3: -0.77; 4: -2.15; 5: -1.40; 6: -1.40; 7: -1.30

// lookup log10 IC50 for CCC(CO)Nc1nc(NCc2ccc(OC)cc2O)c2ncn(CC)c2n1 (centres unmarked)
-1.05
